Values were extracted from patent US20210246166A1.

experimental.system: T1, Recombinant human MASP1 enzyme (fragment corresponding to amino acids 297-699, C-terminal His Tag) (human, UniProt P48740 297-699)
T1 sequence: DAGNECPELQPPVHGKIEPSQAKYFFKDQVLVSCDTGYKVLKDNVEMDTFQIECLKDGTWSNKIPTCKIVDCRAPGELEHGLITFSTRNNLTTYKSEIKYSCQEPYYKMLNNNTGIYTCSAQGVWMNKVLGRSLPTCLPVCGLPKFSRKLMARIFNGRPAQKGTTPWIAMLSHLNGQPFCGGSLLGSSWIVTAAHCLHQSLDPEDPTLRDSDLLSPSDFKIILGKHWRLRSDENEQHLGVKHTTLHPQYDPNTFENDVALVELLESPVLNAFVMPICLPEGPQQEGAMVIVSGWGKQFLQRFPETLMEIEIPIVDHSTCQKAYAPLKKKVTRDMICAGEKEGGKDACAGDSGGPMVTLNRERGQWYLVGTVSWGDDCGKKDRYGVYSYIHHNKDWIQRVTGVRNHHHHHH
assay.comment: cell-based or functional assay
Bridge positions count the residues as written; N and C are the ends. Square brackets hold non-standard residues; d marks the D form. Ends that are not written are not given here. Sar = CNCC(=O)O
experimental.endpoint: human MASP1 IC50 (nM)
Please state the figure in nM; there is no need to write the unit.

GET /values?readout=human MASP1 IC50&item= [Sar]ICSRSLPPICIPD-OH (disulfide 3-11; N-terminus assumed; SMILES CC[C@H](C)[C@H](NC(=O)CNC)C(=O)N[C@H]1CSSC[C@@H](C(=O)N[C@H](C(=O)N2CCC[C@H]2C(=O)N[C@@H](CC(=O)O)C(=O)O)[C@@H](C)CC)NC(=O)[C@H]([C@@H](C)CC)NC(=O)[C@@H]2CCCN2C(=O)[C@@H]2CCCN2C(=O)[C@H](CC(C)C)NC(=O)[C@H](CO)NC(=O)[C@H](CCCNC(=N)N)NC(=O)[C@H](CO)NC1=O) [((N-Me)G)-IC+SRSLPPIC+IPD-OH]
15
